target-or-system: Noradrenaline (NA) reuptake (Rattus norvegicus)
Construct: synaptosomes are freshly isolated from areas of rat brain; from tissue; host or cells: rat hypothalamus synaptosomes (P2 fraction)
Sequence (Q63380 1-617): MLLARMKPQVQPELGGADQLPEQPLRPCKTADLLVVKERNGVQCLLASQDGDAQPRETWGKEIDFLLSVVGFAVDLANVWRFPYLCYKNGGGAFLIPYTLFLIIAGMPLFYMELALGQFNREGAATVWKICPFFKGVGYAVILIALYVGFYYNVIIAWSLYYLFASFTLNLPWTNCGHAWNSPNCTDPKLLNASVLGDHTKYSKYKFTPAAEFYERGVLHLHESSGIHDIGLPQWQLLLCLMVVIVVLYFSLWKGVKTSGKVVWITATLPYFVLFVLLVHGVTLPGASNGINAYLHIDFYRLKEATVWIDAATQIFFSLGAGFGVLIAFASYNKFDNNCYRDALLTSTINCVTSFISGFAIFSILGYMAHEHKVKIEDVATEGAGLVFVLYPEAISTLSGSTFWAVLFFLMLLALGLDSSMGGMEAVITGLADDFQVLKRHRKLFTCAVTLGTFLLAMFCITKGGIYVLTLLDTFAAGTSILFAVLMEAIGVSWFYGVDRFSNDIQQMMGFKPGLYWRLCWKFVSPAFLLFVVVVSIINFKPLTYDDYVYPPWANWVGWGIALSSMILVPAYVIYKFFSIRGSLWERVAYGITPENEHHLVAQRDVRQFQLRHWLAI
protocol: Noradrenaline (NA) reuptake inhibition in rat brain synaptosomes (hypothalamus, P2 fraction)
Format: biochemical
condition-context: read-out: NA reuptake, % inhibition [10 μM]
Counter-ions that a name gives are not always drawn.

- molecule: "CN(C)C(c1ccccc1)C1CCC(NCCCCc2ccccc2)CC1 (centres unmarked) [compound 87, hydrochloride]"
  unit-abbreviation: "%"
  inhibition at 10 µM: 106
- molecule: "CCOC(=O)CCC1CCC(C(c2cccc(F)c2)N(C)C)CC1 (centres unmarked) [compound 139]"
  unit-abbreviation: "%"
  inhibition at 10 µM: 94
- molecule: "CN(C)C(c1cccc(F)c1)C1CCC(CCO)CC1 (centres unmarked) [compound 131]"
  unit-abbreviation: "%"
  inhibition at 10 µM: 89
- molecule: "CCOC(=O)CCC1CCC(C(CCc2ccccc2)N(C)C)CC1 (centres unmarked) [compound 142]"
  unit-abbreviation: "%"
  inhibition at 10 µM: 99
- molecule: "CN(C)C(c1cccc(F)c1)C1CCC(NC(=O)c2nc(CC3CC3)no2)CC1 (centres unmarked) [compound 500]"
  unit-abbreviation: "%"
  inhibition at 10 µM: 101
